# ASSAYED_SYSTEM: PTP1B (Homo sapiens)
# Construct: PTP1B was expressed and purified as described previously; made in house
# Sequence (P18031 whole entry): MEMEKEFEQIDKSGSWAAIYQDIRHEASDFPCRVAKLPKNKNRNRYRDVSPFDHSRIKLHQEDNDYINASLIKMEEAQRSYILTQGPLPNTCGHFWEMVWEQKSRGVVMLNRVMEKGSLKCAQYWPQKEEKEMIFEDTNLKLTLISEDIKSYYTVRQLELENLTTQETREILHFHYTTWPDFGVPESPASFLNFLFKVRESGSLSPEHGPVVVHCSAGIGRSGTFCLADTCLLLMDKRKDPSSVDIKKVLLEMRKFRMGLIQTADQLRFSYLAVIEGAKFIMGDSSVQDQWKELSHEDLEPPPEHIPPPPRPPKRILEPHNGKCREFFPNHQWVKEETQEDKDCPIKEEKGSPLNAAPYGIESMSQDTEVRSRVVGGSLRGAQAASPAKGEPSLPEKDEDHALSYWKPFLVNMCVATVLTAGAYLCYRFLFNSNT
# PROCEDURE_SUMMARY: in vitro EnzChek phosphate assay of PTP1B against synthesized phosphopeptides
# Format: biochemical
# CONDITION_SUMMARY: peptide as substrate of PTP1B, value ± spread as printed
# Description: To test if the predicted phosphopeptides would indeed be in vitro substrates of PTP1B, we synthesized six of these peptides. The two peptides from JAK1 were not synthesized and tested because the sequences are highly similar to the ones of the known substrates JAK2[20] and MET[21] that were also detected by our procedure. […] (Table 1). PTP1B was expressed and purified as described previously.[3] […]
OUTCOME_MEASURE: kcat/Km

# SUBSTANCE, OUTCOME_MEASURE, VALUE_OBSERVED
records = [
    ("STEPQpYQPGEN [Peptide 6, positive control peptide from Src as known substrate of PTP1B, reference compound]", "kcat/Km", "9.0 ± 3.7 ×10^−5 M^−1 s^−1"),
    ("DPSDNpYAEPID [Peptide 1, Predicted PTP1B phosphopeptide substrate from ARHGAP5, pY site 1090]", "kcat/Km", "11.6 ± 3.4 ×10^−5 M^−1 s^−1"),
    ("QENPIpYKSPIN [Peptide 5, Predicted PTP1B phosphopeptide substrate from ITGB1, pY site 783]", "kcat/Km", "7.1 ± 3.0 ×10^−5 M^−1 s^−1"),
    ("DNEDVpYTFKTP [Peptide 3, Predicted PTP1B phosphopeptide substrate from GAB2, pY site 293]", "kcat/Km", "9.2 ± 1.6 ×10^−5 M^−1 s^−1"),
    ("IEDPpYpYGNDSD [Peptide 4, Predicted PTP1B phosphopeptide substrate from ACP1, pY site 133]", "kcat/Km", "8.9 ± 1.1 ×10^−5 M^−1 s^−1"),
    ("EEEDIpYEVLPD [Peptide 2, Predicted PTP1B phosphopeptide substrate from SKAP1, pY site 271]", "kcat/Km", "27.9 ± 13.9 ×10^−5 M^−1 s^−1"),
]
